# tested.system: Human M4 (Homo sapiens)
# Construct: expressed in transfected cells
# Sequence (P08173 whole entry): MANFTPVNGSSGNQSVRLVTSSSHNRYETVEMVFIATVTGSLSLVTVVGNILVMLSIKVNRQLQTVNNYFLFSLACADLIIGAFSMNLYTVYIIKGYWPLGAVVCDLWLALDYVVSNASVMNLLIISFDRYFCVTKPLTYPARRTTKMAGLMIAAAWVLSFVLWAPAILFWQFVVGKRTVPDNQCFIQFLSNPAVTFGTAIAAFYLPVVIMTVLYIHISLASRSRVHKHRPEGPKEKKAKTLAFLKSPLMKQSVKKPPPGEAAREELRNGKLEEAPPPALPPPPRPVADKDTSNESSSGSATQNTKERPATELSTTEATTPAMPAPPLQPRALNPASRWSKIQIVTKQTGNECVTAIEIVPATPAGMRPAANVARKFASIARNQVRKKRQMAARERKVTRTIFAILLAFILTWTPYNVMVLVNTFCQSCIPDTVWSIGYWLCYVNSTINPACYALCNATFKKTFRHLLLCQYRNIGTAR
# test.method.notes: mAChR M4 cell-based functional assay (calcium flux, PAM mode)
# run.parameters: CHO-K1, % ACh maximum at 30 μM; hM4-Gqi5 CHO-K1 cells
property.label: Emax at 30 µM (%)

Worked examples follow.
[2H]C1([2H])Oc2ccc(OC3CCN(c4nn5c(=O)ccnc5c(C)c4C)CC3)cc2OC1([2H])[2H]
100
[2H]C1([2H])Oc2ccc(OC3CCN(c4nn5c(=O)c(F)c(C)nc5cc4C)CC3)cc2OC1([2H])[2H]
80
[2H]C1(Oc2ccc3c(c2)OCCO3)CCN(c2nn3c(=O)ccnc3cc2C)CC1
91
Cc1cc2nccc(=O)n2nc1N1CC[C@H](Oc2ccc3c(c2)OCCO3)C[C@H]1C [Compound 108]
99
[2H]C1([2H])Oc2ccc(O[C@@H]3CCN(c4nn5c(=O)cc(COC)nc5cc4C)C[C@H]3F)cc2OC1([2H])[2H]
108

A: Cc1cc2nccc(=O)n2nc1N1CC[C@@H](Oc2ccc3c(c2)OCCO3)[C@H](C)C1 (single isomer, unassigned)
B: COCc1ncc(OC2CCN(c3nn4c(=O)ccnc4cc3C)CC2)cc1C
IN: Lab note: record which item had the higher Emax at 30 µM, A or B . Please reply using the label of the selected record.
OUT: A
(A: 102%, B: 70%)
